tgt: T1, human C5a (source not stated) (human, UniProt P01031 678-751)
T1 sequence: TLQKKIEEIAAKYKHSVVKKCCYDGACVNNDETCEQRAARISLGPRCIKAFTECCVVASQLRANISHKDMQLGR
experiment.notes: cell-based or functional assay
readout.type: ROS IC50 (nM)
Numbers only, in nM.

binder="Cab31 scFv (scFv, V domains shown) VH: DMQLVESGGGLVQPGGSLKVSCAASGFTFSDYYMQWVRQAPGKGPEWVGLIRNKAVGGTTQYAASVKGRFTISRDDSKSIVYLEMSSLKTEDTAVYYCVSRAGPPGLSWGQGVLVTVSS VL: DTVMSQIPLSLPVTPGEPASISCRSSQSLLHSDGYTYMDWYLQKPGQSPQLLIYGGSNRASGVPDRFSGSGSGTDFTLKISKVEAEDVGVYYCMQHKVLPPTFGQGTRLEIK" meas_value=1.26
binder="Cab27 scFv (scFv, V domains shown) VH: EVQLVQSGGGLVQPGGSLKVSCAASGFTFRDYYMQWVRQAPGKGPEWVGLIRNKAIGGTTQYAASVKGRFTISRDDSKSIVYLQMSSLKTEDTAVYYCVSRAGPPGLSWGQGVLVTVSS VL: DAVMTQTPLSLPVTPGEPASISCRSSQSLLASDGYNYIDWYLQRPGQSPKVLIYGGSNRASGVPDRFSGSGSGTYFTLKISKVEAEDVGFYFCLQHRALPPTFGQGTKLEIK" meas_value=1.21

For the next question, use this binder.
Recorded result, Cab22 scFv (scFv, V domains shown) VH: VVQLVESGGGLVQPGGSLKVSCTASGFIFNDYYMQWVRQAPGKGPEWVGLIRNKANGGTTEYAASVKGRFTISRDDSKSIVYLQMSSLKTEDTAVYFCTGRLGPPGLTWGQGVLVTISS VL: DAVMTQTPLSLPVTPGEPASISCRSSQSLLASDGYNYIDWYLQRPGQSPKVLIYGGSNRASGVPDRFSGSGSGTYFTLKISKVEAEDVGFYFCLQHRALPPTFGQGTKLEIK , ROS IC50: 0.91

Reference source for all entries: patent US20230257454A1
